Origin of values: patent US20220411419A1

Quick reference for CC50 at 48 h among some molecules
# ASSAY: in vitro
# REPORTED_CONDITIONS: human, uninfected SupT1 cells

Worked cases, CC50 at 48 h given:
[
  {
    "MOL": "Cc1cnc(NC(=O)COc2cccc3c2OC(C)(C)C3)s1",
    "MEASURED": "69 µM"
  },
  {
    "MOL": "COc1c(C)cccc1OCC(=O)N(C)c1nc2c(s1)CCCC2",
    "MEASURED": "> 125 µM"
  },
  {
    "MOL": "Cc1c(Cl)cccc1OCC(=O)N(C)c1nc2c(s1)CCCC2",
    "MEASURED": "> 125 µM"
  }
]

Bench note: what CC50 at 48 h did Cc1csc(N(C(=O)COc2cccc3c2OC(C)(C)C3)c2cccnc2)n1 show?
> 125 µM

* * *

# Test system: downmodulation of MHC-I molecules expressed on the surface of HIV infected SupT1 cells
# ASSAY: cells
# REPORTED_CONDITIONS: Human immunodeficiency virus 1, SUP-T1, read-out: EC50 for inhibition of MHC-I downmodulation utilizing the R1 parameter
pEC50: −log10 of the molar value.
QUANTITY_KIND: pEC50

Examples from the recorded data:
[
  {
    "COMPOUND": "CC1(C)Cc2cccc(OCC(=O)Nc3nccc(C(F)(F)F)n3)c2O1 [Compound 28]",
    "MEASUREMENT_TARGET": "downmodulation of MHC-I molecules expressed on the surface of HIV infected SupT1 cells",
    "MEASURED": "< 4.60"
  },
  {
    "COMPOUND": "Cc1cnc(NC(=O)COc2cccc3c2OC(C)(C)C3)cc1C [Compound 77]",
    "MEASUREMENT_TARGET": "downmodulation of MHC-I molecules expressed on the surface of HIV infected SupT1 cells",
    "MEASURED": "< 4.60"
  }
]

Now examine the next entry.
I am curious: what pEC50 value has been reported for Cc1ncccc1OCC(=O)N(C)c1nc2c(s1)CCCC2 [Compound 137] ?
< 4.60

* * *

# Test system: downmodulation of MHC-I molecules expressed on the surface of HIV infected SupT1 cells
# ASSAY: cells
# REPORTED_CONDITIONS: Human immunodeficiency virus 1, SUP-T1, read-out: EC50 for inhibition of MHC-I downmodulation utilizing the R1 parameter
QUANTITY_KIND: pEC50
A value of pEC50 is the negative decimal logarithm of a concentration given in moles per litre.

Example compounds with recorded pEC50:
[
  {
    "COMPOUND": "Cc1csc(N(Cc2ccncc2)C(=O)COc2cccc3c2OC(C)(C)C3)n1 [Compound 35]",
    "MEASUREMENT_TARGET": "downmodulation of MHC-I molecules expressed on the surface of HIV infected SupT1 cells",
    "MEASURED": 5.85
  },
  {
    "COMPOUND": "Cc1csc(NC(=O)COc2cccc3cc[nH]c23)n1 [Compound 134]",
    "MEASUREMENT_TARGET": "downmodulation of MHC-I molecules expressed on the surface of HIV infected SupT1 cells",
    "MEASURED": 4.96
  }
]

# lookup: pEC50 of CC1(C)Cc2cccc(OCC(=O)Nc3ccc(Br)nn3)c2O1 [Compound 25]
5.44
